Property: MIC; scope: individual molecules
System: Staphylococcus aureus
Test: Antibacterial activity against inducible macrolide-lincosamide-streptogramin B-resistant Staphylococcus aureus B0538 by agar microdilution method
Format: functional
quantity.kind: MIC

>>> result("CC[C@H]1OC(=O)[C@H](C)C(=O)[C@H](C)[C@@H](O[C@@H]2O[C@H](C)C[C@H](N(C)C)[C@H]2O)[C@](C)(OCC(O)CNCCc2ccccn2)C[C@@H](C)NC(=O)[C@H](C)[C@@H](O)[C@]1(C)O (mixture of isomers)")
"8 µg/mL"
>>> result("CC[C@H]1OC(=O)[C@H](C)[C@@H](O[C@H]2C[C@@](C)(OC)[C@@H](O)[C@H](C)O2)[C@H](C)[C@@H](O[C@@H]2O[C@H](C)C[C@H](N(C)C)[C@H]2O)[C@](C)(O)C[C@@H](C)CN(C)[C@H](C)[C@@H](O)[C@]1(C)O [AZITHROMYCIN]")
"> 64 µg/mL"
>>> result("CC[C@H]1OC(=O)[C@H](C)C(=O)[C@H](C)[C@@H](O[C@@H]2O[C@H](C)C[C@H](N(C)C)[C@H]2O)[C@](C)(OC[C@@H](O)CNCCNc2ccc3ncccc3c2)C[C@@H](C)NC(=O)[C@H](C)[C@@H](O)[C@]1(C)O")
"0.25 µg/mL"
>>> result("C=CCO[C@]1(C)C[C@@H](C)NC(=O)[C@H](C)[C@@H](O)[C@](C)(O)[C@@H](CC)OC(=O)[C@H](C)C(=O)[C@H](C)[C@H]1O[C@@H]1O[C@H](C)C[C@H](N(C)C)[C@H]1O")
"> 64 µg/mL"

====

Test system: Staphylococcus aureus
Test: Antibacterial activity against erythromycin A-susceptible Staphylococcus aureus B0329 by agar microdilution method
Property: MIC; scope: individual molecules
quantity.kind: MIC (µg/mL)

>>> readout_number("CC[C@H]1OC(=O)[C@H](C)C(=O)[C@H](C)[C@@H](O[C@@H]2O[C@H](C)C[C@H](N(C)C)[C@H]2O)[C@](C)(OCC(O)CNCCc2ccccn2)C[C@@H](C)NC(=O)[C@H](C)[C@@H](O)[C@]1(C)O (mixture of isomers)")
8
>>> readout_number("CC[C@H]1OC(=O)[C@H](C)C(=O)[C@H](C)[C@@H](O[C@@H]2O[C@H](C)C[C@H](N(C)C)[C@H]2O)[C@](C)(OCC(O)CNCCc2cccnc2)C[C@@H](C)NC(=O)[C@H](C)[C@@H](O)[C@]1(C)O (some centres undefined)")
4
>>> readout_number("CC[C@H]1OC(=O)[C@H](C)C(=O)[C@H](C)[C@@H](O[C@@H]2O[C@H](C)C[C@H](N(C)C)[C@H]2O)[C@](C)(OCC(O)CNCCc2ccccc2)C[C@@H](C)NC(=O)[C@H](C)[C@@H](O)[C@]1(C)O (mixture of isomers)")
4
>>> readout_number("CC[C@H]1OC(=O)[C@H](C)C(=O)[C@H](C)[C@@H](O[C@@H]2O[C@H](C)C[C@H](N(C)C)[C@H]2O)[C@](C)(OCC(O)CN[C@H](C)Cc2ccc(OC)cc2)C[C@@H](C)NC(=O)[C@H](C)[C@@H](O)[C@]1(C)O (mixture of isomers)")
1

====

Test system: Staphylococcus aureus
Test: Antibacterial activity against constitutive macrolide-lincosamide-streptogramin B-resistant Staphylococcus aureus B0330 by agar microdilution method
Assay type: functional
quantity.kind: MIC

>>> result("CC[C@H]1OC(=O)[C@H](C)C(=O)[C@H](C)[C@@H](O[C@@H]2O[C@H](C)C[C@H]([N+](C)(C)[O-])[C@H]2O)[C@](C)(OCC2CO2)C[C@@H](C)NC(=O)[C@H](C)[C@@H](O)[C@]1(C)O (stereo partly drawn)")
"> 64 µg/mL"
>>> result("CC[C@H]1OC(=O)[C@H](C)C(=O)[C@H](C)[C@@H](O[C@@H]2O[C@H](C)C[C@H](N(C)C)[C@H]2O)[C@](C)(OCC(O)CN[C@H](C)Cc2ccc(OC)cc2)C[C@@H](C)NC(=O)[C@H](C)[C@@H](O)[C@]1(C)O (mixture of isomers)")
"> 64 µg/mL"
>>> result("CC[C@H]1OC(=O)[C@H](C)[C@@H](O[C@H]2C[C@@](C)(OC)[C@@H](O)[C@H](C)O2)[C@H](C)[C@@H](O[C@@H]2O[C@H](C)C[C@H](N(C)C)[C@H]2O)[C@](C)(O)C[C@@H](C)CN(C)[C@H](C)[C@@H](O)[C@]1(C)O")
"> 64 µg/mL"

====

System: Staphylococcus aureus
Test: Antibacterial activity against inducible macrolide-lincosamide-streptogramin B-resistant Staphylococcus aureus B0538 by agar microdilution method
Format: functional
Property: log10 MIC; scope: individual compounds
quantity.kind: log10 MIC (log10 of the value in µg/mL)

>>> readout_number("CC[C@H]1OC(=O)[C@H](C)C(=O)[C@H](C)[C@@H](O[C@@H]2O[C@H](C)C[C@H](N(C)C)[C@H]2O)[C@](C)(OCC(O)CN2CCN(c3ccc(C(C)=O)cc3)CC2)C[C@@H](C)NC(=O)[C@H](C)[C@@H](O)[C@]1(C)O (mixture of isomers)")
0.60
>>> readout_number("CC[C@H]1OC(=O)[C@H](C)C(=O)[C@H](C)[C@@H](O[C@@H]2O[C@H](C)C[C@H](N(C)C)[C@H]2O)[C@](C)(OCC(O)CNc2ccc3ncccc3c2)C[C@@H](C)NC(=O)[C@H](C)[C@@H](O)[C@]1(C)O (stereo partly drawn)")
0.30
>>> readout_number("CCOc1ccccc1N1CCN(CC(O)CO[C@]2(C)C[C@@H](C)NC(=O)[C@H](C)[C@@H](O)[C@](C)(O)[C@@H](CC)OC(=O)[C@H](C)C(=O)[C@H](C)[C@H]2O[C@@H]2O[C@H](C)C[C@H](N(C)C)[C@H]2O)CC1 (mixture of isomers)")
0.30
>>> readout_number("CC[C@H]1OC(=O)[C@H](C)C(=O)[C@H](C)[C@@H](O[C@@H]2O[C@H](C)C[C@H](N(C)C)[C@H]2O)[C@](C)(OCC(O)CNCCc2ccc([N+](=O)[O-])cc2)C[C@@H](C)NC(=O)[C@H](C)[C@@H](O)[C@]1(C)O (mixture of isomers)")
0.00
>>> readout_number("CC[C@H]1OC(=O)[C@H](C)C(=O)[C@H](C)[C@@H](O[C@@H]2O[C@H](C)C[C@H](N(C)C)[C@H]2O)[C@](C)(OCC(O)CNCc2cnc3ccccc3c2)C[C@@H](C)NC(=O)[C@H](C)[C@@H](O)[C@]1(C)O (mixture of isomers)")
0.30
>>> readout_number("CC[C@H]1OC(=O)[C@H](C)C(=O)[C@H](C)[C@@H](O[C@@H]2O[C@H](C)C[C@H](N(C)C)[C@H]2O)[C@](C)(OCC(O)CNCc2ccc3ncccc3c2)C[C@@H](C)NC(=O)[C@H](C)[C@@H](O)[C@]1(C)O (stereo partly drawn)")
-0.30
>>> readout_number("CC[C@H]1OC(=O)[C@H](C)C(=O)[C@H](C)[C@@H](O[C@@H]2O[C@H](C)C[C@H](N(C)C)[C@H]2O)[C@](C)(OCC(O)CN2CCN(c3ccc4ncccc4c3)CC2)C[C@@H](C)NC(=O)[C@H](C)[C@@H](O)[C@]1(C)O (stereo partly drawn)")
-0.60
>>> readout_number("CC[C@H]1OC(=O)[C@H](C)C(=O)[C@H](C)[C@@H](O[C@@H]2O[C@H](C)C[C@H](N(C)C)[C@H]2O)[C@](C)(OCC(O)CNCCc2cccnc2)C[C@@H](C)NC(=O)[C@H](C)[C@@H](O)[C@]1(C)O (stereo partly drawn)")
0.90

====

Test system: Streptococcus pyogenes
Assay: Antibacterial activity against erythromycin A-susceptible Streptococcus pyogenes B0542 by agar microdilution method
quantity.kind: MIC

>>> result("CC[C@H]1OC(=O)[C@H](C)C(=O)[C@H](C)[C@@H](O[C@@H]2O[C@H](C)C[C@H](N(C)C)[C@H]2O)[C@](C)(OCC(O)CN2CCN(c3ccc(C(C)=O)cc3)CC2)C[C@@H](C)NC(=O)[C@H](C)[C@@H](O)[C@]1(C)O (mixture of isomers)")
"0.5 µg/mL"
>>> result("CC[C@H]1OC(=O)[C@H](C)C(=O)[C@H](C)[C@@H](O[C@@H]2O[C@H](C)C[C@H](N(C)C)[C@H]2O)[C@](C)(OCC(O)CNCCCCc2ccccn2)C[C@@H](C)NC(=O)[C@H](C)[C@@H](O)[C@]1(C)O (some centres undefined)")
"0.25 µg/mL"
>>> result("CC[C@H]1OC(=O)[C@H](C)C(=O)[C@H](C)[C@@H](O[C@@H]2O[C@H](C)C[C@H](N(C)C)[C@H]2O)[C@](C)(OCC(O)CNc2cnc3ccccc3c2)C[C@@H](C)NC(=O)[C@H](C)[C@@H](O)[C@]1(C)O (some centres undefined)")
"≤ 0.125 µg/mL"
>>> result("CC[C@H]1OC(=O)[C@H](C)C(=O)[C@H](C)[C@@H](O[C@@H]2O[C@H](C)C[C@H](N(C)C)[C@H]2O)[C@](C)(OCC(O)CNCCCc2cccnc2)C[C@@H](C)NC(=O)[C@H](C)[C@@H](O)[C@]1(C)O (some centres undefined)")
"≤ 0.125 µg/mL"
